Target: serotonin transporter (SERT) (Homo sapiens, UniProt P31645)
Construct: expressed in transfected cells; host or cells: HEK293
Sequence (P31645 whole entry, species assumed): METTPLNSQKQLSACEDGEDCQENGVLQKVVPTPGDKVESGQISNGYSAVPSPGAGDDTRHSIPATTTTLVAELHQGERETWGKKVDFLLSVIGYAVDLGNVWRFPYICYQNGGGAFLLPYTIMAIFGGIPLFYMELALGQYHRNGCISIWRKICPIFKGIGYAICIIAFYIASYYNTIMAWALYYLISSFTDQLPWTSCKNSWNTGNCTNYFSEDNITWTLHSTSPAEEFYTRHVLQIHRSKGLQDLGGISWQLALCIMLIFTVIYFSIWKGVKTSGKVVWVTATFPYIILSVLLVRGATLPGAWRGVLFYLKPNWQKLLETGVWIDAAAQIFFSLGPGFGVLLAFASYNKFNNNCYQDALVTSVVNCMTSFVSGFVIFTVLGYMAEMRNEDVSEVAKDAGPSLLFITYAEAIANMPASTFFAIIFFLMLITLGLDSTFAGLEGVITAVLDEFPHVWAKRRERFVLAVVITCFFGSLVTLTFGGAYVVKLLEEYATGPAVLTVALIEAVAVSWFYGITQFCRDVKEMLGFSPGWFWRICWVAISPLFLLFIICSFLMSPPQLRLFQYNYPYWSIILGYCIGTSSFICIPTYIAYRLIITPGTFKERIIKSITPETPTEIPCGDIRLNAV
Experiment: Fluorescent substrate uptake inhibition, SERT
Type: cell-based
Conditions: 10 μM, HEK293 cells expressing SERT

| compound | unit spec | inhibition at 10 µM |
| --- | --- | --- |
| N[C@@]1(c2ccccc2)CCCCC1=O [Compound 11R, (R)-2-amino-2-phenyl-cyclohexan-1-one] | % | 0.19 |
| [2H]C([2H])([2H])N[C@]1(c2ccccc2)CCCCC1=O [Compound 88S] | % | 28.2 |
| O=C1CCCC[C@@]1(c1ccccc1)N1CCC1 [Compound 84S] | % | 91.9 |
| COCCN[C@@]1(c2ccccc2)CCCCC1=O [Compound 29R] | % | 19.6 |
| O=C1CCCCC1(c1ccccc1)N1CCCC1 (racemic) [Compound 27rac] | % | 88.6 |
| CN[C@]1(c2cccc(F)c2)CCCCC1=O [Compound 19S] | % | 20.6 |
| O=C1CCCC[C@]1(c1ccccc1)N1CCCCC1 [Compound 26R] | % | 30.4 |
| CN[C@@]1(c2ccccc2)CCCCC1=O [Compound 14R] | % | 19.3 |
| N[C@]1(c2ccccc2)CCCCC1=O [Compound 11S, (S)-2-amino-2-phenyl-cyclohexan-1-one] | % | -2.6 |

---

Assay: Oral bioavailability in rats, Method B
Format: in vivo
Settings: male, rat; plasma, Sprague Dawley rats, 10 mg/kg iv, Method B; read-out: t1/2 (iv)
Kindly return rule met if reported half-life is no lower than 40 min; return rule not met if it is lower.

| compound | group label |
| --- | --- |
| O=C1CCCC[C@@]1(c1ccccc1)N1CCC1 [Compound 84S] | rule met |
| CN[C@@]1(c2ccccc2)CCCCC1=O [Compound 14R] | rule not met |
| O=C1CCCCC1(c1ccccc1)N1CCCC1 (racemic) [Compound 27rac] | rule met |
| COCCNC1(c2ccccc2)CCCCC1=O (racemic) [Compound 29rac] | rule met |
| O=C1CCCC[C@]1(c1ccccc1)N1CCC1 [Compound 84R] | rule not met |
| [2H]C([2H])([2H])N[C@@]1(c2ccccc2)CCCCC1=O [Compound 88R] | rule met |

---

Test: Oral bioavailability in rats, Method A
Type: in vivo
Details: male, rat, plasma, Sprague Dawley rats, 10 mg/kg po, read-out: t1/2 (po)
Description: Animals. Male Sprague Dawley rats were used in these studies Animals were randomly assigned to treatment groups and were fasted overnight before oral dosing. Drugs. The test compound was dissolved in normal saline and administered intravenously (iv) or orally (po) at a dose of 10 mg/kg (calculated based on freebase) and at a volume of 5 mL/kg body weight. […] Data Analysis. […] The drug concentrations of samples below the lower limit of quantitation (LLOQ) were designated as zero.

| compound | half-life (min) |
| --- | --- |
| CNC1(c2ccccc2Cl)CCCCC1=O (racemic) [rac-ketamine, racemic ketamine, reference compound] | 33.7 |

---

Test: Exposure after intraperitoneal administration in mice
Type: in vivo
Conditions: male, mouse; plasma, CD-1 mice, 3.16 mg/kg ip
Recorded measurements of Cmax, one per entry

| compound | Cmax (ng/mL) |
| --- | --- |
| CN[C@@]1(c2ccccc2)CCCCC1=O [Compound 14R] | 1010 |
| CN[C@]1(c2ccccc2)CCCCC1=O [Compound 14S] | 875 |
